From: ChEMBL document CHEMBL5058577

Listed below: Population Normal (%) values for each entry.
- Tested on: U2OS
- procedure_details: Multiplex assay against U2OS
- Assay type: toxicity, cell-based
- particulars: human, 48 h, 1 µM, compound concentration 1 uM, replicate 1
A number alone suffices; assume %.

Recorded Population Normal (%), per entry:
COc1cc(OC2CCN(C(C)=O)CC2)ccc1C(=O)N1CCC(N2C(=O)OCc3ccccc32)CC1 | 96
CN1CCN2c3ccccc3Cc3ccccc3C2C1.Cl (stereo not drawn) [MIANSERIN HYDROCHLORIDE] | 97
S=C(NCCCc1c[nH]cn1)NCCCN(Cc1ccc(Cl)c(Cl)c1)c1ccc(Br)cn1 | 98
CC(C)(O)C(=O)N1CCN(c2ccc(C(F)(F)F)c(C3=C(c4c[nH]c5ccccc45)C(=O)NC3=O)c2)CC1 | 96
CCn1c(-c2nc3cc(C(=O)N4CCCC(N)C4)ccc3n2C)cc2ccccc21.Cl (stereo not drawn) | 97
CN1CCN(c2ccc(Nc3c4ccccc4nc4ccccc34)cc2)CC1.Cl.Cl.O | 95

Item: CCC(=O)OCC(=O)[C@@]1(OC(=O)CC)[C@@H](C)C[C@H]2[C@@H]3CCC4=CC(=O)C=C[C@]4(C)[C@@]3(Cl)[C@@H](O)C[C@@]21C [BECLOMETHASONE DIPROPIONATE] | Population Normal (%): 97

Item: CSc1nc(NC2CCCC2)c([N+](=O)[O-])c(NC2CCCC2)n1 [GS-39783] | Population Normal (%): 98

###

- System: Fibroblast
- procedure_details: Multiplex assay against human fibroblast
- Type: toxicity, cell-based
- particulars: 48 h, 1 µM, compound concentration 1 uM, replicate 2
Listed below: Population Tubulin-Different-Phenotype (%) values for each entry.
A number alone suffices; assume %.

Recorded Population Tubulin-Different-Phenotype (%), per entry:
CCc1nn2c(C)cc(C)nc2c1Cc1ccc(-c2nnc(C3CCNCC3)o2)cc1 | 54
COC(c1ccccc1)(c1ccccc1)[C@H](Oc1nc(C)cc(C)n1)C(=O)O | 42
CC(C)C[C@H](CO)Nc1nc(S[C@@H](C)c2ccccc2)nc2nc(N)sc12 | 54

Entry CN(C)C(=O)Cn1cc(-c2ccc(-c3nnc4ccccn34)cc2)cn1 , Fibroblast data, Population Tubulin-Different-Phenotype (%) value: 46

Entry Cn1cc(C(=O)OCC2CCN(CCNS(C)(=O)=O)CC2)c2ccccc21 , Fibroblast data, Population Tubulin-Different-Phenotype (%) value: 43

###

Listed below: Population Mitotic Cells (%) values for each entry.
- Test system: Fibroblast
- procedure_details: Multiplex assay against human fibroblast
- Assay type: toxicity, cell-based
- particulars: 24 h, 1 µM, compound concentration 1 uM, replicate 1
Non-standard residues stand in square brackets, D forms with d. Residues, ends and D or L forms follow the SMILES beside them.
A number alone suffices; assume %.

Recorded Population Mitotic Cells (%), per entry:
O=C(NCCNCC(O)COc1ccc(O)cc1)N1CCOCC1.O=C(NCCNCC(O)COc1ccc(O)cc1)N1CCOCC1.O=C(O)/C=C/C(=O)O (stereo not drawn) [XAMOTEROL FUMARATE] | 31
COc1c(Nc2ccc(S(C)(=O)=O)nc2C)ncnc1OC1CCN(C(=O)OC(C)C)CC1 | 52

Item: Cc1cc(-c2ccc3c(c2)CC[C@H]3N2CC3(CCN(C(=O)Cc4cn5cc(C)sc5n4)CC3)C2)ncn1 | Population Mitotic Cells (%): 45

Item: COCCCN1CCC(NC(=O)c2cc(Cl)c(N)c3c2OCC3)CC1 [PRUCALOPRIDE] | Population Mitotic Cells (%): 51

Item: COc1ccc2c(c1OCc1ccccc1)C[C@@H](C(=O)O)N(C(=O)C(c1ccccc1)c1ccccc1)C2 | Population Mitotic Cells (%): 34

Item: Cn1cc(C(=O)OCC2CCN(CCNS(C)(=O)=O)CC2)c2ccccc21 | Population Mitotic Cells (%): 68

Item: CN(C)C(=O)Cn1cc(-c2ccc(-c3nnc4ccccn34)cc2)cn1 | Population Mitotic Cells (%): 43

Item: CC(C)C[C@@H]1NC(=O)[C@@H](C(C)C)NC(=O)[C@@H]2CCCN2C(=O)[C@@H](CC(=O)O)NC(=O)[C@@H](Cc2c[nH]c3ccccc23)NC1=O [BQ-123] (cyclo(L[dW][dD]P[dV])) | Population Mitotic Cells (%): 46

###

- System: U2OS
- procedure_details: Multiplex assay against U2OS
- Assay type: toxicity, cell-based
- particulars: human, 12 h, 1 µM, compound concentration 1 uM, replicate 1
Listed below: Population Mitotic Cells (%) values for each entry.
A number alone suffices; assume %.

Recorded Population Mitotic Cells (%), per entry:
COC(c1ccccc1)(c1ccccc1)[C@H](Oc1nc(C)cc(C)n1)C(=O)O | 4
Cl.Cl.OCCOCCN1CCN(C(c2ccccc2)c2ccc(Cl)cc2)CC1 (centres undefined) [HYDROXYZINE HYDROCHLORIDE] | 40
Cn1cc(C(=O)OCC2CCN(CCNS(C)(=O)=O)CC2)c2ccccc21 | 26
COc1cc(C(=O)N2CC[C@@H](O)[C@@H](N)C2)cc2nc(-c3cc4ccccc4n3CC3CC3)n(C)c12.Cl | 50
CN1CCN(c2ccc(Nc3c4ccccc4nc4ccccc34)cc2)CC1.Cl.Cl.O | 0

Entry CC(C)C[C@H](CO)Nc1nc(S[C@@H](C)c2ccccc2)nc2nc(N)sc12 , U2OS data, Population Mitotic Cells (%) value: 16

Entry Cc1c(Cc2ccc3ccccc3n2)c2cc(F)ccc2n1CC(=O)O , U2OS data, Population Mitotic Cells (%) value: 16

Entry COc1cc(Nc2ncc3c(n2)-c2ccc(Cl)cc2C(c2c(F)cccc2OC)=NC3)ccc1C(=O)O , U2OS data, Population Mitotic Cells (%) value: 36

Entry COc1cc(OC2CCN(C(C)=O)CC2)ccc1C(=O)N1CCC(N2C(=O)OCc3ccccc32)CC1 , U2OS data, Population Mitotic Cells (%) value: 50

Entry COc1cc2nc(N3CCN(C(=O)c4ccco4)CC3)nc(N)c2cc1OC.Cl [PRAZOSIN HYDROCHLORIDE] , U2OS data, Population Mitotic Cells (%) value: 11

Entry O=C(O)CCC/C=C\CC1C(O)CC(O)C1/C=C/C(O)COc1cccc(Cl)c1 (centres undefined) , U2OS data, Population Mitotic Cells (%) value: 22

Entry O=c1ccc2ccc(OCCCCN3CCN(c4cccc5sccc45)CC3)cc2[nH]1 , U2OS data, Population Mitotic Cells (%) value: 26

Entry Cc1cc(O)c(-c2ccc([C@@H](C)CN(C)C)cc2)c2c1[nH]c(=O)c1sccc12 , U2OS data, Population Mitotic Cells (%) value: 19

Entry Cc1ccc(OCC(O)C(C)NC(C)C)c2c1CCC2.Cl (centres undefined) , U2OS data, Population Mitotic Cells (%) value: 36

Entry COc1ccc2[nH]c(I)c(CCNC(C)=O)c2c1 , U2OS data, Population Mitotic Cells (%) value: 31

Entry COCCCN1CCC(NC(=O)c2cc(Cl)c(N)c3c2OCC3)CC1 [PRUCALOPRIDE] , U2OS data, Population Mitotic Cells (%) value: 15

Entry CCCCCCNC(=O)Nc1ccc(S(=O)(=O)Nc2ccc(CCNC[C@H](O)COc3ccc(O)cc3)cc2)cc1 , U2OS data, Population Mitotic Cells (%) value: 13

Entry COc1cc2nc(N3CCN(C(=O)COc4c(OC)cccc4C(C)C)CC3)nc(N)c2cc1OC.Cl.Cl , U2OS data, Population Mitotic Cells (%) value: 32

Entry CCc1nn2c(C)cc(C)nc2c1Cc1ccc(-c2nnc(C3CCNCC3)o2)cc1 , U2OS data, Population Mitotic Cells (%) value: 57

Entry Nc1nc(-c2ccco2)c2cnn(Cc3ccccc3F)c2n1 , U2OS data, Population Mitotic Cells (%) value: 17

Entry COc1ccc2c(c1OCc1ccccc1)C[C@@H](C(=O)O)N(C(=O)C(c1ccccc1)c1ccccc1)C2 , U2OS data, Population Mitotic Cells (%) value: 17

Entry S=C(NCCCc1c[nH]cn1)NCCCN(Cc1ccc(Cl)c(Cl)c1)c1ccc(Br)cn1 , U2OS data, Population Mitotic Cells (%) value: 25

Entry C=CCN1C[C@H](C(=O)N(CCCN(C)C)C(=O)NCC)C[C@@H]2c3cccc4[nH]cc(c34)C[C@H]21 , U2OS data, Population Mitotic Cells (%) value: 13

Entry CC(C)(O)C(=O)N1CCN(c2ccc(C(F)(F)F)c(C3=C(c4c[nH]c5ccccc45)C(=O)NC3=O)c2)CC1 , U2OS data, Population Mitotic Cells (%) value: 11

###

- System: Fibroblast
- procedure_details: Multiplex assay against human fibroblast
- Format: toxicity, cell-based
- particulars: 12 h, 10 µM, compound concentration 10 uM, replicate 1
Listed below: Total Cell Count values for each entry.

Recorded Total Cell Count, per entry:
O=C(NCCNCC(O)COc1ccc(O)cc1)N1CCOCC1.O=C(NCCNCC(O)COc1ccc(O)cc1)N1CCOCC1.O=C(O)/C=C/C(=O)O (stereo not drawn) [XAMOTEROL FUMARATE] | 143
CC(C)(C)c1ccc(CSc2cnn(C(C)(C)C)c(=O)c2Cl)cc1 [PYRIDABEN] | 139
CN1CCC(C(=O)c2cccc(NC(=O)c3c(F)cc(F)cc3F)n2)CC1 | 266

Item: CC(C)(O)C(=O)N1CCN(c2ccc(C(F)(F)F)c(C3=C(c4c[nH]c5ccccc45)C(=O)NC3=O)c2)CC1 | Total Cell Count: 125

Item: Cc1ccc(OCC(O)C(C)NC(C)C)c2c1CCC2.Cl (stereo not drawn) | Total Cell Count: 138

Item: Cc1sc2c(c1C)C(c1ccc(Cl)cc1)=N[C@H](CC(=O)OC(C)(C)C)c1nnc(C)n1-2 | Total Cell Count: 128
